test system: Mycosphaerella graminicola; Anamorph: Septoria tritici; test: Leaf blotch of wheat (SEPTTR) disease control on wheat seedlings; format: in vivo; conditions: Zymoseptoria tritici, 72 h; Wheat Leaf Blotch; 3 Day Curative; low volume application, 121.5 g/H; read-out: Disease Control SEPTTR 3 DC 121.5 g/H
Measured Metric: pest or weed control at 121.5 g/ha

Reference set, count: 3
Query block: Can you share its pest or weed control at 121.5 g/ha? I mean this compound: C=C(C)CO[C@H]1CCC[C@H](NC(=O)c2nccc(OC)c2OC(C)=O)C(=O)O[C@@H](C)[C@@H]1OC
Result block: 0 to 80%

Query block: Can you share its pest or weed control at 121.5 g/ha? I mean this compound: CCCO[C@H]1CCC[C@H](NC(=O)c2nccc(OC)c2OC(C)=O)C(=O)O[C@@H](C)[C@@H]1Oc1cccc(Cl)c1
Result block: 80 to 100%

Query block: Can you share its pest or weed control at 121.5 g/ha? I mean this compound: CCOCC(=O)OCOc1c(OC)ccnc1C(=O)N[C@H]1CCC[C@H](Oc2ccccc2)[C@@H](OC(=O)C2CCCC2)[C@H](C)OC1=O
Result block: 0 to 80%

I need pest or weed control at 121.5 g/ha for every entry listed below, if you could help.
1. CCCO[C@H]1CCC[C@H](NC(=O)c2nccc(OC)c2OC(C)=O)C(=O)O[C@@H](C)[C@@H]1Oc1cccc(F)c1
2. COc1ccnc(C(=O)N[C@H]2CCC[C@H](Oc3ccccc3)[C@@H](OC(=O)C3CCCC3)[C@H](C)OC2=O)c1OCOC(C)=O
3. COc1ccnc(C(=O)N[C@H]2CCC[C@H](Oc3ccccc3)[C@@H](OC(=O)C3CC3)[C@H](C)OC2=O)c1OCOC(C)=O
4. COc1ccnc(C(=O)N[C@H]2CCC[C@H](Oc3ccccc3)[C@@H](OC(=O)C3CCCC3)[C@H](C)OC2=O)c1OC(C)=O
5. C=C(C)c1ccc(O[C@H]2[C@H](C)OC(=O)[C@@H](NC(=O)c3nccc(OC)c3OC(C)=O)CCC[C@@H]2OCCC)cc1
6. COCCC(=O)Oc1c(OC)ccnc1C(=O)N[C@H]1CCC[C@H](Oc2ccccc2)[C@@H](OC)[C@H](C)OC1=O

Result block:
["80 to 100%", "80 to 100%", "80 to 100%", "0 to 80%", "80 to 100%", "80 to 100%"]

I need pest or weed control at 121.5 g/ha for every entry listed below, if you could help.
1. CCCO[C@H]1[C@H](C)OC(=O)[C@@H](NC(=O)c2nccc(OC)c2OC(C)=O)CCC[C@@H]1Oc1cc(C)cc(C)c1
2. COc1ccnc(C(=O)N[C@H]2CCC[C@H](OCC(C)C)[C@@H](OC)[C@H](C)OC2=O)c1OC(C)=O
3. COc1ccnc(C(=O)N[C@H]2CCC[C@H](Oc3ccccc3)[C@@H](OC)[C@H](C)OC2=O)c1OCOC(C)=O
4. COCCC(=O)Oc1c(OC)ccnc1C(=O)N[C@H]1CCC[C@H](Oc2ccccc2)[C@@H](OC(=O)C2CC2)[C@H](C)OC1=O
5. COc1ccnc(C(=O)N[C@H]2CCC[C@H](OCC(C)C)[C@@H](OC)[C@H](C)OC2=O)c1OCOC(=O)C(C)C

Result block:
1. 80 to 100%
2. 80 to 100%
3. 0 to 80%
4. 80 to 100%
5. < 0%

====

tested on: Phakopsora pachyrhizi; assay: Asian soybean rust (PHAKPA) disease control; assay type: in vivo; conditions: topical, 24 h, 1 Day Protectant, high volume, read-out: Disease Control PHAKPA 1DP
Measured Metric: pest or weed control at 25 ppm

Query block: Can you share its pest or weed control at 25 ppm? I mean this molecule: COc1ccnc(C(=O)N[C@H]2CCC[C@H](Oc3ccccc3)[C@@H](OC(=O)C3CC3)[C@H](C)OC2=O)c1OCOC(=O)C(C)C
Result block: 80 to 100%

Query block: Can you share its pest or weed control at 25 ppm? I mean this molecule: CCCCCO[C@H]1[C@H](C)OC(=O)[C@@H](NC(=O)c2nccc(OC)c2OCOC(C)=O)CCC[C@@H]1OC1CCCC1
Result block: 80 to 100%

Query block: Can you share its pest or weed control at 25 ppm? I mean this molecule: CCCO[C@H]1CCC[C@H](NC(=O)c2nccc(OC)c2OCOC(=O)C(C)C)C(=O)O[C@@H](C)[C@@H]1OC1CCCC1
Result block: 80 to 100%

Query block: Can you share its pest or weed control at 25 ppm? I mean this molecule: CCCO[C@H]1[C@H](C)OC(=O)[C@@H](NC(=O)c2nccc(OC)c2OCOC(C)=O)CCC[C@@H]1Oc1ccccc1
Result block: 80 to 100%

Query block: Can you share its pest or weed control at 25 ppm? I mean this molecule: COc1ccnc(C(=O)N[C@H]2CCC[C@H](OC3CCCC3)[C@@H](OCCCc3ccccc3)[C@H](C)OC2=O)c1OCOC(C)=O
Result block: 80 to 100%

I need pest or weed control at 25 ppm for every entry listed below, if you could help.
1. COc1ccnc(C(=O)N[C@H]2CCC[C@H](Oc3ccccc3)[C@@H](OCC(C)C)[C@H](C)OC2=O)c1OCOC(=O)C(C)C
2. COc1ccnc(C(=O)N[C@H]2CCC[C@H](OCc3ccccc3)[C@@H](OCc3ccccc3)[C@H](C)OC2=O)c1OCOC(C)=O

Result block:
1. 80 to 100%
2. 80 to 100%

I need pest or weed control at 25 ppm for every entry listed below, if you could help.
1. CCCO[C@H]1CCC[C@H](NC(=O)c2nccc(OC)c2OCOC(=O)C(C)C)C(=O)O[C@@H](C)[C@@H]1Oc1ccccc1
2. COc1ccnc(C(=O)N[C@H]2CCC[C@H](OC3CCCC3)[C@@H](OC3CCCC3)[C@H](C)OC2=O)c1OC(C)=O

Result block:
80 to 100%
80 to 100%

I need pest or weed control at 25 ppm for every entry listed below, if you could help.
1. COc1ccnc(C(=O)N[C@H]2CCC[C@H](OCC(C)C)[C@@H](OC)[C@H](C)OC2=O)c1OCOC(=O)C(C)C
2. CCOCC(=O)OCOc1c(OC)ccnc1C(=O)N[C@H]1CCC[C@H](Oc2ccccc2)[C@@H](OC(=O)C2CCCC2)[C@H](C)OC1=O
3. COc1ccc(O[C@H]2CCC[C@H](NC(=O)c3nccc(OC)c3OCOC(C)=O)C(=O)O[C@@H](C)[C@@H]2OCC(C)C)cc1
4. COc1ccnc(C(=O)N[C@H]2CCC[C@H](OCC(C)C)[C@@H](Oc3ccccc3)[C@H](C)OC2=O)c1OCOC(=O)C(C)C

Result block:
1: 80 to 100%; 2: 80 to 100%; 3: 80 to 100%; 4: 80 to 100%

Query block: Can you share its pest or weed control at 25 ppm? I mean this molecule: COc1ccnc(C(=O)N[C@H]2CCC[C@H](OCC(C)C)[C@@H](OC(=O)C3CC3)[C@H](C)OC2=O)c1OCOC(C)=O
Result block: 80 to 100%

====

tested on: Mycosphaerella graminicola; Anamorph: Septoria tritici; test: Leaf blotch of wheat (SEPTTR) disease control on wheat seedlings; type: in vivo; conditions: Zymoseptoria tritici, 24 h; Wheat Leaf Blotch; 1 Day Protectant; low volume application, 121.5 g/H; read-out: Disease Control SEPTTR 1 DP 121.5 g/H
Measured Metric: pest or weed control at 121.5 g/ha

Reference set, count: 6
Query block: Can you share its pest or weed control at 121.5 g/ha? I mean this molecule: C=C(C)CO[C@H]1CCC[C@H](NC(=O)c2nccc(OC)c2OC(C)=O)C(=O)O[C@@H](C)[C@@H]1OC [F256]
Result block: < 0%

Query block: Can you share its pest or weed control at 121.5 g/ha? I mean this molecule: COc1ccnc(C(=O)N[C@H]2CCC[C@H](OCC(C)C)[C@@H](OC)[C@H](C)OC2=O)c1OCOC(C)=O [F251]
Result block: < 0%

Query block: Can you share its pest or weed control at 121.5 g/ha? I mean this molecule: CCCO[C@H]1CCC[C@H](NC(=O)c2nccc(OC)c2OCOC(C)=O)C(=O)O[C@@H](C)[C@@H]1Oc1ccc(F)cc1 [F265]
Result block: 80 to 100%

Query block: Can you share its pest or weed control at 121.5 g/ha? I mean this molecule: CCCO[C@H]1[C@H](C)OC(=O)[C@@H](NC(=O)c2nccc(OC)c2OC(C)=O)CCC[C@@H]1Oc1cccc(F)c1 [F284]
Result block: 80 to 100%

Query block: Can you share its pest or weed control at 121.5 g/ha? I mean this molecule: C=C(C)CO[C@H]1CCC[C@H](NC(=O)c2nccc(OC)c2OCOC(C)=O)C(=O)O[C@@H](C)[C@@H]1OC [F250]
Result block: < 0%

Query block: Can you share its pest or weed control at 121.5 g/ha? I mean this molecule: COc1ccnc(C(=O)N[C@H]2CCC[C@H](Oc3ccccc3)[C@@H](OC(=O)C3CC3)[C@H](C)OC2=O)c1OC(C)=O [F242]
Result block: 0 to 80%

I need pest or weed control at 121.5 g/ha for every entry listed below, if you could help.
1. COc1ccnc(C(=O)N[C@H]2CCC[C@H](Oc3ccccc3)[C@@H](OC)[C@H](C)OC2=O)c1OC(C)=O [F258]
2. CCCO[C@H]1CCC[C@H](NC(=O)c2nccc(OC)c2OC(C)=O)C(=O)O[C@@H](C)[C@@H]1Oc1cccc(F)c1 [F275]
3. COc1ccnc(C(=O)N[C@H]2CCC[C@H](Oc3ccccc3)[C@@H](OC)[C@H](C)OC2=O)c1OCOC(C)=O [F252]

Result block:
1: 0 to 80%; 2: 80 to 100%; 3: 0 to 80%

I need pest or weed control at 121.5 g/ha for every entry listed below, if you could help.
1. COCCC(=O)Oc1c(OC)ccnc1C(=O)N[C@H]1CCC[C@H](Oc2ccccc2)[C@@H](OC(=O)C2CC2)[C@H](C)OC1=O [F243]
2. COc1ccnc(C(=O)N[C@H]2CCC[C@H](Oc3ccccc3)[C@@H](OC(=O)C3CCCC3)[C@H](C)OC2=O)c1OCOC(=O)C(C)C [F234]

Result block:
1: 0 to 80%; 2: 80 to 100%

I need pest or weed control at 121.5 g/ha for every entry listed below, if you could help.
1. COc1ccnc(C(=O)N[C@H]2CCC[C@H](OCC(C)C)[C@@H](OC)[C@H](C)OC2=O)c1OCOC(=O)C(C)C [F254]
2. COc1ccnc(C(=O)N[C@H]2CCC[C@H](Oc3ccccc3)[C@@H](OC(=O)C3CC3)[C@H](C)OC2=O)c1OCOC(=O)C(C)C [F241]
3. CCCO[C@H]1CCC[C@H](NC(=O)c2nccc(OC)c2OC(C)=O)C(=O)O[C@@H](C)[C@@H]1Oc1ccc(OC)cc1 [F274]

Result block:
["< 0%", "< 0%", "80 to 100%"]
